FYI, the data here is from patent US8158621B2.

Tested on: cultured human mast cells (CHMC)
Experiment: CHMC low cell density ionomycin activation: tryptase assay
Assay type: cell-based
Settings: Low Density CHMC, ionomycin activation, tryptase release; read-out: CHMC Ionomycin Tryptase IC50
Measure name: IC50

Sample answers from the record:
{"Smiles notation": "O=C(NNc1nc(Nc2ccc3c(c2)OCCO3)ncc1F)c1ccc2c(c1)OCO2", "Target or test system": "cultured human mast cells (CHMC)", "IC50": "> 10 µM"}
{"Smiles notation": "Oc1cccc(Nc2ncc(Br)c(Nc3cccc(O)c3)n2)c1", "Target or test system": "cultured human mast cells (CHMC)", "IC50": "> 10 µM"}
{"Smiles notation": "COC(=O)c1cc2cc(Nc3ncc(F)c(Nc4ccc(OC(C)C)cc4)n3)ccc2o1", "Target or test system": "cultured human mast cells (CHMC)", "IC50": "> 10 µM"}

For each of the items listed, what is its IC50?
1. CC(C)(CO)NC(=O)c1cc2cc(Nc3ncc(F)c(Nc4cccc(O)c4)n3)ccc2o1
2. Fc1cnc(Nc2ccc3c(c2)OCCO3)nc1Nc1ccc2c(c1)OCCO2
3. OCc1cc2cc(Nc3ncc(F)c(Nc4cccc(O)c4)n3)ccc2[nH]1
4. Oc1cccc(Nc2nc(Nc3ccc4c(c3)OCCO4)ncc2Br)c1

Result string:
1. > 10 µM
2. 5.5 µM
3. > 10 µM
4. > 10 µM

Query string: Hello, please tell me recorded IC50 for this one: CNC(=O)c1cc2cc(Nc3ncc(F)c(Nc4cccc(O)c4)n3)ccc2o1
Result string: 9.18 µM

----------
Give measured % inhibition to vehicle control Edema Size ± SEM for each item. Keep answers brief.
Test: Mouse Reverse Passive Arthus reaction (RPA reaction)
Assay type: in vivo, C57BL/6 mice
Settings: oral, 100 mg/kg, pretreatment time 1.5 hrs
Protocol: In this model system, test compounds are administered at several timepoints prior to administration of Abs and Ags. A solution of rabbit anti-OVA IgG (50 μg in 25 μl/mouse) is injected intradermally, and immediately following is an intravenous injection of chicken egg albumin (20 mg/kg of body weight) in a solution containing 1% Evans blue dye. The degree of edema and hemorrhage is measured in the dorsal skin of C57BL/6 mice using the Evan's Blue dye as an indicator of local tissue damage. […]
One number for each entry, in %.

{"Smiles notation": "COc1ccc(Nc2nc(Nc3ccc4cc[nH]c4c3)ncc2F)cc1Cl.Cc1ccc(S(=O)(=O)O)cc1", "Experimental value": 28.7}

Record % inhibition to vehicle control Edema Size ± SEM for all entries; do not skip any.
1. COc1cc(Nc2ncc(F)c(Nc3ccc4c(c3)NC(=O)C(C)(C)O4)n2)cc(OC)c1.Cc1ccc(S(=O)(=O)O)cc1
2. CC1(C)Oc2ccc(Nc3nc(Nc4ccc5cn[nH]c5c4)ncc3F)cc2NC1=O.O=S(=O)(O)c1ccccc1
3. Cc1ccc(S(=O)(=O)O)cc1.Cc1ccc(S(=O)(=O)O)cc1.OCCCn1ncc2cc(Nc3ncc(F)c(Nc4ccc(Cl)c(Cl)c4)n3)ccc21

Result string:
1. 55.5
2. 67.1
3. 77.1

----------
Test system: basophil cells (human peripheral blood)
Assay: Basophil anti-IgE activation: histamine release assay
Format: cell-based
Conditions: basophils, anti-IgE activation, histamine release; read-out: Basophils anti-IgE Histamine IC50
Measure name: IC50 (nM)
Give bare numbers, in nM.

Solved entries:
{"Smiles notation": "CCOc1ccc(Nc2nc(Nc3ccc(OC)c(OC)c3)ncc2F)cc1", "IC50 (nM)": 950}
{"Smiles notation": "Oc1cccc(Nc2ncc(F)c(Nc3ccc4c(c3)OCCO4)n2)c1", "IC50 (nM)": 370}
{"Smiles notation": "O=C(NCCO)c1cc2cc(Nc3ncc(F)c(Nc4cccc(O)c4)n3)ccc2o1", "IC50 (nM)": 270}
{"Smiles notation": "Oc1cccc(Nc2ncc(F)c(Nc3cccc(O)c3)n2)c1", "IC50 (nM)": 240}
{"Smiles notation": "COc1ccc(Nc2ncc(F)c(Nc3ccc(OC)c(OC)c3)n2)cc1OC", "IC50 (nM)": 300}
{"Smiles notation": "Fc1cnc(Nc2ccc3c(c2)OCCO3)nc1Nc1ccc2c(c1)OCCO2", "IC50 (nM)": 150}

Now let's try a different one.
Query string: Provide one value: measured IC50 of COc1ccc(Nc2ncc(F)c(Nc3cccc(O)c3)n2)cc1OC
Result string: 270

----------
System: cultured human mast cells (CHMC)
Test: CHMC low cell density IgE activation: tryptase assay
Assay type: cell-based
Conditions: Homo sapiens, Mast cell, Low Density; read-out: CHMC anti-IgE Tryptase
Measure name: IC50

Known IC50 results, listed for orientation:
{"Smiles notation": "Cc1cc(Nc2nc(Cl)ncc2F)ccc1F", "IC50": "99 µM"}
{"Smiles notation": "Fc1cnc(Cl)nc1Nc1ccc2ncccc2c1", "IC50": "> 10 µM"}
{"Smiles notation": "O=C1COc2ccc(Nc3nc(Cl)ncc3F)nc2N1", "IC50": "> 10 µM"}
{"Smiles notation": "Cc1ccnc(Nc2nc(Cl)ncc2F)c1", "IC50": "> 10 µM"}
{"Smiles notation": "Fc1cnc(Cl)nc1Nc1ccc(OC(F)(F)F)cc1", "IC50": "> 10 µM"}

// each compound listed below needs its IC50
1. OCCOc1ccc(Nc2ncc(F)c(Nc3cccc(O)c3)n2)cc1
2. Fc1cnc(Cl)nc1Nc1cccc(OC(F)(F)F)c1
3. CC1=C(Nc2ncc(F)c(Nc3ccc4c(c3)OCCO4)n2)N(c2ccccc2)CO1
4. Fc1cnc(Cl)nc1Nn1cccc1
5. CC(C)(C)OC(=O)N1CCc2ccc(Nc3nc(Cl)ncc3F)cc2C1

Result string:
["0.401 µM", "> 10 µM", "3.07 µM", "> 10 µM", "> 10 µM"]

----------
Assignment: determine reported pIC50 for the given compounds.
Tested on: cultured human mast cells (CHMC)
Experiment: CHMC low cell density IgE activation: tryptase assay
Assay type: cell-based
Settings: low cell density; read-out: CHMC anti-IgE Tryptase
Answers are plain numbers, as −log10 of the molar value.

{"Smiles notation": "Cc1cc(Nc2ncc(F)c(Nc3ccc4c(c3)OCCO4)n2)cc(C)c1Cl", "Measure name": "pIC50", "Experimental value": 6.21}
{"Smiles notation": "CC(=O)N(C)c1ccc(Nc2ncc(F)c(Nc3ccc4c(n3)NC(=O)C(C)(C)O4)n2)cc1", "Measure name": "pIC50", "Experimental value": 5.60}
{"Smiles notation": "COc1c(Cl)cc(Nc2ncc(F)c(Nc3ccc4c(c3)C(=O)NC(=O)C4(C)C)n2)cc1Cl", "Measure name": "pIC50", "Experimental value": 6.53}

Query compound follows.
Query string: Retrieve pIC50 measured for Cc1cc(Nc2ncc(F)c(Nc3ccc4c(c3)NC(=O)C(C)(C)O4)n2)cc(Cl)c1O and print it.
Result string: 7.52

----------
System: Human Jurkat T-cells (clone N)
Test: Jurkat T-cell activation (anti-TCR, CD69 upregulation)
Type: cell-based
Details: Homo sapiens
Measure name: IC50 (µM)
One number for each entry, in µM.

Worked cases, answers included:
{"Compound": "CC(C)NC(=O)Oc1cccc(Nc2ncc(F)c(Nc3cccc(OC(=O)NC(C)C)c3)n2)c1 [Compound R926412]", "Target or test system": "Human Jurkat T-cells (clone N)", "IC50, µM": 2.38}
{"Compound": "O=[N+]([O-])c1cc(Nc2ccnc(Nc3ccc(F)c([N+](=O)[O-])c3)n2)ccc1F [Compound R950152]", "Target or test system": "Human Jurkat T-cells (clone N)", "IC50, µM": 2.65}

// next entry
Query string: Fill in reported IC50 for this entry: O=[N+]([O-])c1ccc(F)c(Nc2ncc(F)c(Nc3cc([N+](=O)[O-])ccc3F)n2)c1 [Compound R950147]
Result string: 14.8

----------
Molecular target: Syk kinase (Homo sapiens)
Experiment: Syk kinase biochemical fluorescence polarization assay
Conditions: isolated Syk kinase, fluorescence polarization, 4 uM ATP
Exercise: state measured IC50 for each of the compounds provided.

Hi team, please reply with IC50 for each item in this list.
1. Cn1ncc2ccc(Nc3ncc(F)c(Nc4ccc5c(c4)NC(=O)C(F)(F)O5)n3)cc21
2. CNC(=O)COc1cccc(Nc2ncc(F)c(Nc3ccc4c(c3)NCCO4)n2)c1
3. O=C1Nc2cc(Nc3nc(Nc4cc(Cl)cc(Cl)c4)ncc3F)ccc2OC1(F)F
4. CC(C)c1cccc(Nc2ncc(F)c(Nc3ccc4c(n3)NC(=O)CO4)n2)c1
5. CC(=O)N(C)c1ccc(Nc2ncc(F)c(NC3CC3)n2)cc1
6. CNC(=O)COc1cccc(Nc2ncc(F)c(Nc3ccc4c(c3)OCCCO4)n2)c1
7. NC1CCOc2ccc(Nc3nc(Nc4ccc(Cl)c(Cl)c4)ncc3F)cc21 (racemic)
8. O=C1Nc2cc(Nc3nc(Nc4ccc5cc[nH]c5c4)ncc3F)ccc2OC1(F)F

Result string:
1. 1 nM
2. 41 nM
3. 203 nM
4. > 10000 nM
5. 1850 nM
6. 35 nM
7. 150 nM
8. 7 nM
